Data origin, for the record: the supplement of paper PMC8728848

# system: Neu5Ac(a2-3)Gal(b1-3)GlcNAc(b1-2)Man
# methodNotes: glycan array binding signal (z-score within array); higher = stronger binding
# conditionNotes: glycan notation: IUPAC condensed, linker removed
The sample as a whole holds a higher share of the strongest signals than the screen did.
Kindly supply the reported glycan array binding signal (z-score) values for the records listed here.
Just the number, please, no unit attached.

Look at this binder and give its reported glycan array binding signal (z-score). SP15308F-bth-333-19-333 (Bacteroides thetaiotaomicron) (protein) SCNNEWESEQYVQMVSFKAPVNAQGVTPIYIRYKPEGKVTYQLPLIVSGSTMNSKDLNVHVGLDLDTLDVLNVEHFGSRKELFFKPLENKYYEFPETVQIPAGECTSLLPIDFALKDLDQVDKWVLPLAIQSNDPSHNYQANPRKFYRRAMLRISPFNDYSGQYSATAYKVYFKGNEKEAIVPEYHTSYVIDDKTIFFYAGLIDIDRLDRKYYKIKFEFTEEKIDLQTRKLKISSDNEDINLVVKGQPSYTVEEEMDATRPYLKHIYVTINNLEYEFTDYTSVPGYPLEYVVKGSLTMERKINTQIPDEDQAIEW
1.15

# query: glycan array binding signal (z-score) of entry EPL1 (Trichoderma atroviride), A0PCX2 (protein) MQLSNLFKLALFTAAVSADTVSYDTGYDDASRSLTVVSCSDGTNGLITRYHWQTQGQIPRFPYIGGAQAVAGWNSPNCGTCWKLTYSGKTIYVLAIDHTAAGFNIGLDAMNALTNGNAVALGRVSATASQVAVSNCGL
-0.068
